TESTED_SYSTEM: T1, FV-short (factor V isoform with B-domain residues 756 to 1458 deleted) (human)
T1 construct: coagulation factor V, splicing isoform FV-short, single chain, lacks the BR and retains AR2; source: BHK cells, purified
MEASUREMENT_DESCRIPTION: inhibition of prothrombinase (prothrombin activation assay); 0.1 nM cofactor species, 50 μM PCPS, 1.4 μM prothrombin, 3 μM DAPA, TFPIα-BR 0–7 μM, started with 2 nM FXa, assay buffer, 25 °C; Ki from the equation for competitive inhibition
TEST_SETTINGS: both partners purified
METRIC_NAME: Ki (nM)
Use nM as the unit, but write only the number.

Q) Determine its reported Ki: KKGFIQRISKGGLIKTKRKRKKQRVKIAYEEIFVKNM (domain or fragment, limits not printed (refs 17, 18); taken as the whole C-terminal tail after Kunitz 3 (mature 240-276); expressed in E. coli, unglycosylated) [TFPIα-BR, fragment containing the BR sequence of TFPIα]
A) 23.6
